Would you kindly list IC50 for each of these compounds?
target: glucosylceramide synthase (Homo sapiens); construct: Microsomes were isolated from A375 human melanoma cells; endogenous in cells; assay: microsomal assay measuring conversion of ceramide to glucosylceramide by HPLC (GCS IC50); conditions: concentration causing 50% inhibition of glucosylceramide synthase activity
Sequence (Q16739 whole entry): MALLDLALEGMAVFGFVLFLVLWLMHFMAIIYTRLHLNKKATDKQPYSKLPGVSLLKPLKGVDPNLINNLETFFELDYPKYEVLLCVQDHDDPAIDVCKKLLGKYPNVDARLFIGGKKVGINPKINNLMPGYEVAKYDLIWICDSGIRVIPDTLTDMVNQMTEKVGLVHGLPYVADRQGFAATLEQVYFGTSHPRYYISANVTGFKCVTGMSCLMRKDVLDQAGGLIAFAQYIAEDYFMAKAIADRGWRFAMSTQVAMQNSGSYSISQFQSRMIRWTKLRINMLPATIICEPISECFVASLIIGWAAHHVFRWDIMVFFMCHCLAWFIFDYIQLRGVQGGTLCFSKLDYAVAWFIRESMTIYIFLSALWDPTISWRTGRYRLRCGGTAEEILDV
Just the number plus its unit, please.

Query: GET IC50 | system: glucosylceramide synthase (Homo sapiens) | item: O=C(NC1CN2CCC1CC2)C1(F)CCN(c2nccc(-c3ccc(OCCF)cc3)n2)CC1 (stereo not shown) [Example 87]
Result: 1.91 nM

Query: GET IC50 | system: glucosylceramide synthase (Homo sapiens) | item: CC(C)(NC(=O)OC1CN2CCC1CC2)c1ccc(-c2ccc(OCC#N)cc2)cc1 (stereo not shown) [Example 190]
Result: 2.59 nM

Query: GET IC50 | system: glucosylceramide synthase (Homo sapiens) | item: CC(C)(NC(=O)OC1CN2CCC1CC2)c1cccc(Oc2cccc(C(=O)N3CCOCC3)c2)c1 (stereo not shown) [Example 279]
Result: 4330 nM

Query: GET IC50 | system: glucosylceramide synthase (Homo sapiens) | item: CCC1(NC(=O)NC2(c3ccc(-c4ccc(CCCOC)cc4)cc3)CC2)CN2CCC1CC2 (stereo not shown) [Example 215]
Result: 2.48 nM
